tested on: RAJI cells (Burkitt's leukaemia/lymphoma); experiment: Additional cancer cell line panel, RAJI; format: cell-based; conditions: Homo sapiens, Raji; confidence intervals in parentheses; NA: not active
MEASUREMENT NAME: EC50 (µM)
Report the value in µM with no unit label.

CSc1ccc(/C=C2/C(C)=C(CNC(=O)[C@@H](N)C(C)C)c3cc(F)ccc32)cc1; 39

Task: What value of EC50 has been reported for the following compound? COc1cc(/C=C2/C(C)=C(CNC(=O)[C@@H](N)C(C)C)c3cc(F)ccc32)cc(OC)c1OC
Output: 110

----------
Each entry below carries its reported melting point.

Worked examples follow.
CSc1ccc(/C=C2/C(C)=C(CNS(=O)(=O)c3ccc4ccccc4c3)c3cc(F)ccc32)cc1; 152 to 154 °C
CSc1ccc(/C=C2/C(C)=C(CNS(C)(=O)=O)c3cc(F)ccc32)cc1; 159 to 160 °C
CSc1ccc(/C=C2/C(C)=C(CNC(=O)[C@@H](N)CO)c3cc(F)ccc32)cc1; 146 to 148 °C

Task: What value of melting point has been reported for the following molecule? COc1cc(/C=C2/C(C)=C(CNC(=O)[C@@H]3CCCN3)c3cc(F)ccc32)cc(OC)c1OC
Output: 64 to 66 °C

Task: Also check CSc1ccc(/C=C2/C(C)=C(CNS(=O)(=O)c3cccc4ccccc34)c3cc(F)ccc32)cc1
Output: 94 to 95 °C

Task: Also check COc1cc(/C=C2/C(C)=C(CNC(C)=O)c3cc(F)ccc32)cc(OC)c1OC
Output: 183 to 185 °C

Task: Also check COc1cc(/C=C2/C(C)=C(CNS(=O)(=O)c3ccc4ccccc4c3)c3cc(F)ccc32)cc(OC)c1OC
Output: 118 to 120 °C

Task: Also check CSc1ccc(/C=C2/C(C)=C(CNC(=O)[C@@H](N)C(C)C)c3cc(F)ccc32)cc1
Output: 133 to 135 °C

Task: Also check CSc1ccc(/C=C2/C(C)=C(CNS(=O)(=O)c3ccccc3)c3cc(F)ccc32)cc1
Output: 141 to 143 °C
